- Target Or System: Casein kinase I isoform gamma-2 (Homo sapiens);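 also: values are mean inhibition figures reported as part of the GSK PKIS dataset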
- Experimental Setup: at 0.1 µM
Would you mind telling me the reported inhibition of each entry?
Note: state the figure and append the unit.

Which inhibition value belongs to Cc1ccc(C(=O)NC2CC2)cc1-c1ccc2[nH]ncc2c1 ?
-2.87%

Which inhibition value belongs to NS(=O)(=O)c1cccc(-c2cc3ccncc3cc2OCc2ccccc2)c1 ?
3.06%

Which inhibition value belongs to Cc1ccc2c(-c3ccnc(Nc4cccc(C(F)(F)F)c4)n3)c(-c3ccccc3)nn2n1 ?
3.82%

Which inhibition value belongs to COc1cc2ncn(-c3cc(OCc4ccccc4S(C)(=O)=O)c(C#N)s3)c2cc1OC ?
2.02%

Which inhibition value belongs to CN(c1ccc(NC(=O)Nc2ccc(OC(F)(F)F)cc2)cc1)c1ccnc(Nc2cccc(S(N)(=O)=O)c2)n1 ?
2.32%

Which inhibition value belongs to COc1ccc2ncnc(Nc3ccc(OCc4ccccc4)cc3)c2c1 ?
1.66%

Which inhibition value belongs to CCn1c(-c2nonc2N)nc2c(C#CC(C)(C)O)nc(OCCNC)cc21 ?
3.26%
